Reported IC50 values follow for various molecules
system: Leishmania donovani; test: In vitro growth inhibitory activity against Leishmania donovani amastigotes at 37 degrees C under a 5% CO2 atmosphere for 96 hours; assay type: functional, organism-based

molecule	assay target	value reported
NS(=O)(=O)NC(=O)OCC1C=CC(n2ccc(=O)[nH]c2=O)O1 (centres undefined)	Leishmania donovani	> 90 µM

// field: IC50; key: O=c1ccn(C2CC(O)C(CNP(=O)(Oc3ccccc3)Oc3ccccc3)O2)c(=O)[nH]1 (centres undefined) ; value = > 65 µM

Value of IC50 reported for the molecule CCCCCCCCCCCCCCCC(=O)OCC1C=CC(n2ccc(=O)[nH]c2=O)O1 (centres undefined) is > 67 µM

So, O=c1ccn([C@H]2C[C@H](F)[C@@H](CO)O2)c(=O)[nH]1 ? Its IC50 was > 391 µM

Please fill in: IC50 reported for O=c1ccn([C@H]2C[C@H](O)[C@@H](COC(c3ccccc3)(c3ccccc3)c3ccccc3)O2)c(=O)[nH]1 = > 64 µM

# IC50 (molecule: CCOP(=O)(OCC)OC[C@H]1O[C@@H](n2ccc(=O)[nH]c2=O)C[C@@H]1O ) is > 82 µM

Please fill in: IC50 reported for CCOP(=O)(CC(=O)OC[C@H]1O[C@@H](n2ccc(=O)[nH]c2=O)C[C@@H]1O)OCC = > 74 µM

// IC50 lookup, molecule = CC(=O)OC[C@H]1O[C@@H](n2ccc(=O)[nH]c2=O)C[C@@H]1O , result: > 111 µM

Looking up CC(C)(C)[Si](C)(C)O[C@H]1C[C@H](n2ccc(=O)[nH]c2=O)O[C@@H]1CO , I see its IC50 listed as > 88 µM

---

system: Plasmodium falciparum; experiment: In vitro inhibitory activity against Plasmodium falciparum as [3H]hypoxanthine (50 uL) incorporation at 37C; format: functional, organism-based
Measured IC50, listed per entry.
Report as a plain number; the unit µM is understood.

Reference set (8 entries):
compound	assay target	IC50 / µM
NS(=O)(=O)OCC1C=CC(n2ccc(=O)[nH]c2=O)O1 (centres undefined)	Plasmodium falciparum	163
O=c1ccn(C2CC(F)C(COC(c3ccccc3)(c3ccccc3)c3ccccc3)O2)c(=O)[nH]1 (centres undefined)	Plasmodium falciparum	2
CC(C)(C)[Si](C)(C)O[C@H]1C[C@H](n2ccc(=O)[nH]c2=O)O[C@@H]1COC(c1ccccc1)(c1ccccc1)c1ccccc1	Plasmodium falciparum	1
CCOP(=O)(CC(=O)NCC1OC(n2ccc(=O)[nH]c2=O)CC1O)OCC (centres undefined)	Plasmodium falciparum	78
CC(C)(C)[Si](C)(C)O[C@H]1C[C@H](n2ccc(=O)[nH]c2=O)O[C@@H]1COP(=O)(Oc1ccccc1)Oc1ccccc1	Plasmodium falciparum	6
NS(=O)(=O)NC(=O)OC[C@H]1O[C@@H](n2ccc(=O)[nH]c2=O)C[C@@H]1O	Plasmodium falciparum	20
CCOP(=O)(CC(=O)OC[C@H]1O[C@@H](n2ccc(=O)[nH]c2=O)C[C@@H]1O[Si](C)(C)C(C)(C)C)OCC	Plasmodium falciparum	18
CC(C)(C)[Si](OC[C@H]1O[C@@H](n2ccc(=O)[nH]c2=O)C[C@@H]1O)(c1ccccc1)c1ccccc1	Plasmodium falciparum	6.6

Would you kindly look at the next entry?
Briefly, IC50 measured for CC(C)(C)[Si](C)(C)O[C@H]1C[C@H](n2ccc(=O)[nH]c2=O)O[C@@H]1COS(N)(=O)=O : 40
